experimental system: human serum albumin (HSA) (Homo sapiens, UniProt P02768)
Sequence (P02768 25-609): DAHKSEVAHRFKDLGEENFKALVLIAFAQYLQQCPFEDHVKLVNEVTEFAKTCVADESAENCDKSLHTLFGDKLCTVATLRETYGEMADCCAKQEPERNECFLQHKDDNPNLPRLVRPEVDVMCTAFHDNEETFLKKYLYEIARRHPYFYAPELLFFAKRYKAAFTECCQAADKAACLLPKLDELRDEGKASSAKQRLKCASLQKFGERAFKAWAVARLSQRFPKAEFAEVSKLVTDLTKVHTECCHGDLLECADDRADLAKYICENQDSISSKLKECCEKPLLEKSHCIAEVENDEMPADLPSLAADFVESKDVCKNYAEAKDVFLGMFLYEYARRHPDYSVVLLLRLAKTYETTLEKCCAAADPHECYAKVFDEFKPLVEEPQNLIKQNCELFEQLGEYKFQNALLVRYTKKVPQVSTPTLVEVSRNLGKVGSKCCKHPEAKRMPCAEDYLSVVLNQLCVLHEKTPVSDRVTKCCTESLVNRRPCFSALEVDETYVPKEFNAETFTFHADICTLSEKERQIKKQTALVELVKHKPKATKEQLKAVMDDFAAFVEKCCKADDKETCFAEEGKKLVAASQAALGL
assay info: Binding constant by fluorescence quenching of intrinsic Trp fluorescence
condition summary: ligand bound to HSA alone; fluorescence quenching; read-out: Ka, binding constant for the ligand-HSA complex
parameter measured: Kd
Be sure to follow the number with its unit.

Item C=CC1=C(C)/C(=C/c2[nH]c(CC3=C(CCC(=O)O)C4(C)CC=C5C(=CC4=N3)NC(=O)C5C)c(CCC(=O)O)c2C)NC1=O (stereo not shown) : provide Kd
1080 nM
